src = patent US20260297129A1

Assay: Protease stability in simulated intestinal fluids (FaSSIF) (Table 7)
Assay type: in vitro ADME
Details: fassif with pancreatin, 60 min, 37° C., read-out: Remaining percentage of peptide compound, FaSSIF 60 (min)
Method: Studies were carried out in simulated intestinal fluid (SIF) and simulated gastric fluid (SGF) to evaluate gastric stability of the peptide compounds disclosed herein. […] To 76 μL of the Pepsin-SGF buffer, 4 μL of the 20 μM peptide stock solution was added and incubated at 37° C. […] The samples were centrifuged for 20 minutes and an aliquot of the supernatant 100 μL were transferred to a LoBind-MTP plate and analyzed by LCMS/MS. […]
Numbered stars: 1 amine (or outer) side, 2 acyl side, 3 side chain; on linkers, the order of the positions; unused ones are H or OH. Bridge positions count the residues as written; N and C are the ends. Square brackets hold non-standard residues; d marks the D form. Peptide text beside a SMILES is read from it. * marks the point of attachment. Lys(Me,(CH2)4NMe(CH2)4CO) = CN(CCCCC(=O)[*:3])CCCCN(C)CCCC[C@H](N[*:1])C(=O)[*:2]; Trp(7-Me) = Cc1cccc2c(C[C@H](N)C(=O)O)c[nH]c12; Trp(1-Me) = Cn1cc(C[C@H](N)C(=O)O)c2ccccc21; NH(CH2)9CO = O=C(CCCCCCCCCN[*:1])[*:2]; 2Nal = N[C@@H](Cc1ccc2ccccc2c1)C(=O)O; 3Pal = N[C@@H](Cc1cccnc1)C(=O)O; Aun = NCCCCCCCCCCC(=O)O; Thp = NC1(C(=O)O)CCOCC1; Me2NCH2CH2 = CN(C)CC*; Aib = CC(C)(N)C(=O)O; Aoc = NCCCCCCCC(=O)O; Sar = CNCC(=O)O
OUTCOME MEASURE: remaining at 1 h, 1 µM (%)
Report the value in % with no unit label.

COMPOUND	UNIT TAG	remaining at 1 h, 1 µM
Cc1cccc2c(C[C@@H]3NC(=O)CCCCCCCCCCNC(=O)CC[C@@H](C(=O)N[C@@H](CC(N)=O)C(=O)N[C@@H](Cc4cccnc4)C(=O)N(C)CC(N)=O)NC(=O)C(C)(C)NC(=O)[C@H](Cc4ccc5ccccc5c4)NC(=O)[C@H](Cc4ccc(OCCN(C)C)cc4)NC(=O)C4(CCOCC4)NC(=O)[C@H](CC(C)C)NC3=O)c[nH]c12 [compound 7] ([Aun][Trp(7-Me)]L[Thp]Y(Me2NCH2CH2)[2Nal][Aib]EN[3Pal][Sar]-NH2; lactam N-8)	%	80
CN(C)CCOc1ccc(C[C@@H]2NC(=O)C3(CCOCC3)NC(=O)[C@H](CCC(N)=O)NC(=O)[C@H](Cc3cn(C)c4ccccc34)NC(=O)CCCCN(C)CCCCN(C)CCCC[C@@H](C(=O)N[C@@H](CO)C(=O)N[C@@H](Cc3cccnc3)C(=O)N(C)CC(N)=O)NC(=O)C(C)(C)NC(=O)[C@H](Cc3ccc4ccccc4c3)NC2=O)cc1 [compound 40] ([Trp(1-Me)]Q[Thp]Y(Me2NCH2CH2)[2Nal][Aib][Lys(Me,(CH2)4NMe(CH2)4CO)]S[3Pal][Sar]-NH2; lactam N-7)	%	97
Cc1cccc2c(C[C@@H]3NC(=O)CCCCCCCCCNC(=O)CC[C@@H](C(=O)N[C@@H](CC(N)=O)C(=O)N[C@@H](Cc4cccnc4)C(=O)N(C)CC(N)=O)NC(=O)C(C)(C)NC(=O)[C@H](Cc4ccc5ccccc5c4)NC(=O)[C@H](Cc4ccc(OCCN(C)C)cc4)NC(=O)C4(CCOCC4)NC(=O)[C@H](CCC(N)=O)NC3=O)c[nH]c12 [compound 5] ([NH(CH2)9CO][Trp(7-Me)]Q[Thp]Y(Me2NCH2CH2)[2Nal][Aib]EN[3Pal][Sar]-NH2; lactam N-8)	%	77
Cc1cccc2c(C[C@@H]3NC(=O)CCCCCCCCCNC(=O)CC[C@@H](C(=O)N[C@@H](CC(N)=O)C(=O)N[C@@H](Cc4cccnc4)C(=O)N(C)CC(N)=O)NC(=O)C(C)(C)NC(=O)[C@H](Cc4ccc5ccccc5c4)NC(=O)[C@H](Cc4ccc(OCCN(C)C)cc4)NC(=O)C4(CCOCC4)NC(=O)[C@H](CC(C)C)NC3=O)c[nH]c12 [compound 8] ([NH(CH2)9CO][Trp(7-Me)]L[Thp]Y(Me2NCH2CH2)[2Nal][Aib]EN[3Pal][Sar]-NH2; lactam N-8)	%	79

Consider now this further compound.
What does the record list as remaining at 1 h, 1 µM for Cc1cccc2c(C[C@@H]3NC(=O)CCCCCCCNC(=O)CC[C@@H](C(=O)N[C@@H](CC(N)=O)C(=O)N[C@@H](Cc4cccnc4)C(=O)N(C)CC(N)=O)NC(=O)C(C)(C)NC(=O)[C@H](Cc4ccc5ccccc5c4)NC(=O)[C@H](Cc4ccc(OCCN(C)C)cc4)NC(=O)C4(CCOCC4)NC(=O)[C@H](CC(C)C)NC3=O)c[nH]c12 [compound 9] ([Aoc][Trp(7-Me)]L[Thp]Y(Me2NCH2CH2)[2Nal][Aib]EN[3Pal][Sar]-NH2; lactam N-8) ?
74
